Target: T1, ROR1 expressed on cells (A549, MB231, JeKo-1, MEC-ROR1) (UniProt Q01973 30-937)
T1 construct: whole, on cells; also called ROR1-expressing cell lines; ROR1-positive cells
T1 sequence (Q01973 30-937): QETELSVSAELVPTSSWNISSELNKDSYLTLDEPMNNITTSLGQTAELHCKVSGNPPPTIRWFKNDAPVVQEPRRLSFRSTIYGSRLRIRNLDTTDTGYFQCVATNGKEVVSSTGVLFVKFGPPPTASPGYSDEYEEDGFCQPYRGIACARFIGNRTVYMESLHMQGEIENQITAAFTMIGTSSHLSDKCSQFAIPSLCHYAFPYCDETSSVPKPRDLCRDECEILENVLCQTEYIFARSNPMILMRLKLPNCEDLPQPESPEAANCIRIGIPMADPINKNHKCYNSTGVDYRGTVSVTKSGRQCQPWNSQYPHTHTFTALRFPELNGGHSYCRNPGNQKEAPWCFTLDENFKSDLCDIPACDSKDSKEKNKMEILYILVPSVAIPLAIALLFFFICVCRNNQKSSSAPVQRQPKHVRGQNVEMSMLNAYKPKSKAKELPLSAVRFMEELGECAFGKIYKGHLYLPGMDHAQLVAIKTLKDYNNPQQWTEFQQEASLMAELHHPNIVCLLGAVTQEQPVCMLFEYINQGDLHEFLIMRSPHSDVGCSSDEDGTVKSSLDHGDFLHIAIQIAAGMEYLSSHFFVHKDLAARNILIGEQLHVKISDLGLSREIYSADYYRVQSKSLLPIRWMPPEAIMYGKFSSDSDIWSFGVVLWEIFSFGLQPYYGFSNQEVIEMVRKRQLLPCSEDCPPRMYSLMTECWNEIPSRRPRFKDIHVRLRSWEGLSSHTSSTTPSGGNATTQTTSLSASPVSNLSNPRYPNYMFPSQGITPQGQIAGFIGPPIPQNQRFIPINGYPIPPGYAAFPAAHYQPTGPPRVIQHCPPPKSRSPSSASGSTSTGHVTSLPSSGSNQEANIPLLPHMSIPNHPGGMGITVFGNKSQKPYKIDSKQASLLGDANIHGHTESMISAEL
Test: flow cytometry on JeKo-1 cells, 1 µg/ml, anti-HA APC
binders and their reported proportion of binding cells
propertyLabel: proportion of binding cells

1) 5-95 (VHH, not shown: one his tag and one HA tag at the C-terminus) VHH: QVQLQESGGGLVQPGGSLRLSCAASGFTFSTYSMTWVRQAPGKGLEWVSDINSGGSVAYYTDSVKGRFTASRDNAKNTLYLQMNSLKPEDTAVYYCYEGGYHGGSPRGHGTQVTVSS	1.18%
2) 4-92 (VHH, Alpaca VHH from the phage library; not shown: one his tag and one HA tag at the C-terminus) VHH: QVQLQESGGGLVQPGGSLRLSCAASGFAFSSRAMSWVRQAPGKGLEWVSDINYDGAWTYYADSVKGRFTISRDNAKNTLYLQMNSLKPEDTAVYFCTDPWSIDGWGQGTQVTVSS	2.96%
3) 5-09 (VHH, also called 5-9; not shown: one his tag and one HA tag at the C-terminus) VHH: QVQLQESGGGLVQPGGSLRLSCAASGFTLDDYAIGWFRQAPGKERERISCISSGGNTNYADSVKGRFTLSRDNAKNTVYLQMYSLKPEDTAVYYCTASIPSCASYYFPPRNMDYWGKGTQVTVSS	1.9%
4) 5-26 (VHH, Alpaca VHH from the phage library; not shown: one his tag and one HA tag at the C-terminus) VHH: QVQLQESGGGLVQPGGSLRLSCAASGFTLDLYAIGWFRQAPGKERERVSCISSGGSTNYAESVKGRFTISRDNGKNTVYLQMNSLKPEDTAVYYCVRSVPSCGSYYFPPRNMNYWGKGTQVTVSS	99.7%
